target: Human recombinant PDE2A (hPDE2A) (Homo sapiens, UniProt O00408); construct: His tag (inferred from metal chelate purification); made in house; host or cells: Sf9 insect cells (baculovirus); assay: In vitro assay PDE2A (SPA, 3H-cGMP hydrolysis); type: biochemical; details: read-out: hPDE2A pIC50 (converted)
Sequence (O00408 whole entry): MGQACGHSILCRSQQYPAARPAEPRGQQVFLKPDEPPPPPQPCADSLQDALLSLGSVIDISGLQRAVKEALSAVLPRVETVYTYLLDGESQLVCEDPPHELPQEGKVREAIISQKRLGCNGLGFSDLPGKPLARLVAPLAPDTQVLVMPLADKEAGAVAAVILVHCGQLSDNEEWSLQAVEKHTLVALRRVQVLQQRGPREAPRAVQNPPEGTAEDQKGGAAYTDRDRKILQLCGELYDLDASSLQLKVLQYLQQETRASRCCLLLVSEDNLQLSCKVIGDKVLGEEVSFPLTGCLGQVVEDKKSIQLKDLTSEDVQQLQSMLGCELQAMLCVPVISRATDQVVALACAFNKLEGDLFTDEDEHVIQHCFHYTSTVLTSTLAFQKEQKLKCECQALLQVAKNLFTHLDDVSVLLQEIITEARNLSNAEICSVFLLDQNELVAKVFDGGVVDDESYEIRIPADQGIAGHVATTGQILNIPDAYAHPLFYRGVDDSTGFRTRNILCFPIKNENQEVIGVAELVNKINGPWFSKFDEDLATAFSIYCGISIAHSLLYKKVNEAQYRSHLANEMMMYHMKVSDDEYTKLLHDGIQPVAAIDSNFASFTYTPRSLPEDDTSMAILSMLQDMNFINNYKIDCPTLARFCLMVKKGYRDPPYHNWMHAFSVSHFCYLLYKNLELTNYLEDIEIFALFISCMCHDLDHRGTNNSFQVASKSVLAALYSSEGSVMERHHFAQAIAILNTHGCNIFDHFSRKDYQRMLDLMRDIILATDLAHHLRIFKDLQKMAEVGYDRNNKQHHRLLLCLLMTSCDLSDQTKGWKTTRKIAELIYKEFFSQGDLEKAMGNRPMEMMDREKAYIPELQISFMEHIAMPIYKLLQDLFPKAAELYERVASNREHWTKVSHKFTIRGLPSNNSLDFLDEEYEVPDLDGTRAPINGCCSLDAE
Below, each of the molecules is paired with its reported IC50 value.

| molecule | target.or.system | IC50 |
| --- | --- | --- |
| C[C@@H]1CCN(C(=O)c2cc(C3CC3)ncc2F)C[C@@]1(F)c1cc(C(F)F)nc2ncnn12 | Human recombinant PDE2A (hPDE2A) (Homo sapiens, UniProt O00408) | 0.0759 µM |
| COc1cc(C(=O)N2[C@H]3CC[C@H](c4cc(C(F)F)nc5ncnn45)[C@@H]2CC3)cc(C)n1 | Human recombinant PDE2A (hPDE2A) (Homo sapiens, UniProt O00408) | 0.00589 µM |
| C[C@@H]1CCN(C(=O)c2ncccc2C(F)(F)F)C[C@H]1c1cc(C(F)F)nc2ncnn12 | Human recombinant PDE2A (hPDE2A) (Homo sapiens, UniProt O00408) | 0.457 µM |
| COc1cc(C(=O)N2[C@H]3CC[C@H](c4cc(C(F)F)nc5ncnn45)[C@@H]2CC3)ccc1Cl | Human recombinant PDE2A (hPDE2A) (Homo sapiens, UniProt O00408) | 0.0186 µM |
| Cc1cc(C(=O)N2CC[C@@H](C)[C@H](c3cc(C(F)F)nc4ncnn34)C2)cc(OC(F)F)n1 | Human recombinant PDE2A (hPDE2A) (Homo sapiens, UniProt O00408) | 0.00166 µM |
| C[C@@H]1CCN(C(=O)c2cccc(C#N)c2)C[C@H]1c1cc(C(F)F)nc2ncnn12 | Human recombinant PDE2A (hPDE2A) (Homo sapiens, UniProt O00408) | 0.0102 µM |
| Cn1ccc2cc(C(=O)N3[C@H]4CC[C@H](c5cc(C(F)F)nc6ncnn56)[C@@H]3CC4)ncc21 | Human recombinant PDE2A (hPDE2A) (Homo sapiens, UniProt O00408) | 0.0102 µM |
| CCCOc1cccnc1C(=O)N1CC[C@@H](C)[C@H](c2cc(C(F)F)nc3ncnn23)C1 | Human recombinant PDE2A (hPDE2A) (Homo sapiens, UniProt O00408) | 0.126 µM |
| C[C@@H]1CCN(C(=O)c2cc(Cl)ncc2Cl)C[C@H]1c1cc(C(F)F)nc2ncnn12 | Human recombinant PDE2A (hPDE2A) (Homo sapiens, UniProt O00408) | 0.00501 µM |
| COc1ccc(C(=O)N2CC[C@@H](C)[C@H](c3cc(C(F)F)nc4ncnn34)C2)cn1 | Human recombinant PDE2A (hPDE2A) (Homo sapiens, UniProt O00408) | 0.0234 µM |
| Cc1cc(C(=O)N2CC[C@H](C)[C@@](F)(c3cc(C(F)F)nc4ncnn34)C2)cc(C2CC2)n1 [Compound 24a] | Human recombinant PDE2A (hPDE2A) (Homo sapiens, UniProt O00408) | 2.57 µM |
| COc1cc(C(=O)N2CC[C@@H](C)[C@H](c3cc(C(F)F)nc4ncnn34)C2)ccc1Cl | Human recombinant PDE2A (hPDE2A) (Homo sapiens, UniProt O00408) | 0.00245 µM |
